protocol_notes: Phase I single dose oral AMX0035 fasted/fed plasma pharmacokinetics and food effect (Protocol A35-002)
Type: in vivo, human
measurement_conditions: both sexes, human, in vivo, po, single oral AMX0035, Fed (N = 13), healthy subjects, PK analysis subset; read-out: AUC(0-last), Adj Geo Mean
readout_name: AUC(0-t) (ng·h/mL)

| compound | readout_name | observed_measurement |
| --- | --- | --- |
| O=C(O)Cc1ccccc1 [PAA, phenylacetate] | AUC(0-t) | 58200 |

###

protocol_notes: Phase I single dose oral AMX0035 fasted/fed plasma pharmacokinetics and food effect (Protocol A35-002)
Assay type: in vivo, human
measurement_conditions: both sexes, human, in vivo, po, single oral AMX0035, Fasted (N = 13), healthy subjects, PK analysis subset; read-out: AUC(0-last), Adj Geo Mean

| compound | AUC(0-t) |
| --- | --- |
| O=C(O)Cc1ccccc1 [PAA, phenylacetate] | 83200 ng·h/mL |
